Tested on: human peripheral blood mononuclear cells (PBMC)
Experiment: CTL induction by peptide from PBMC of HLA-A2-positive cancer patients and healthy individuals, IFN-γ against peptide-pulsed T2 cells (Example 6)
Type: cell-based
Details: PBMC of colon cancer patient 14; peptide-pulsed T2 cells
ASSAY READOUT: INF-γ production (pg/mL)
Hi! Could you send only the number? It should be in pg/mL, unit omitted.

1. LMLQNALTIM (LMLQNALTTM; Designed peptide having an ability to activate HLA-A2 restricted Cytotoxic T lymphocytes) [Peptide P30, Gene 7 1359-1368]    33
2. LLRRADFHV (Designed peptide having an ability to activate HLA-A2 restricted Cytotoxic T lymphocytes) [Peptide P26, Gene 7 1296-1304]    0
3. KVHPVIWSL [Peptide P21]    66
4. QLGQGNLKV [Peptide P23]    48
5. TQLATYSFEV (Designed peptide having an ability to activate HLA-A2 restricted Cytotoxic T lymphocytes) [Peptide P32, CPSF 456-465]    0

Prompt line: Which value of INF-γ production has been reported for DMWTVIAPV (Designed peptide having an ability to activate HLA-A2 restricted Cytotoxic T lymphocytes) [Peptide P22, CPSF 534-542] in the records?
Response line: 80
